experimental.system: Serine/threonine-protein kinase Chk1 (Homo sapiens)
Sequence (O14757 whole entry): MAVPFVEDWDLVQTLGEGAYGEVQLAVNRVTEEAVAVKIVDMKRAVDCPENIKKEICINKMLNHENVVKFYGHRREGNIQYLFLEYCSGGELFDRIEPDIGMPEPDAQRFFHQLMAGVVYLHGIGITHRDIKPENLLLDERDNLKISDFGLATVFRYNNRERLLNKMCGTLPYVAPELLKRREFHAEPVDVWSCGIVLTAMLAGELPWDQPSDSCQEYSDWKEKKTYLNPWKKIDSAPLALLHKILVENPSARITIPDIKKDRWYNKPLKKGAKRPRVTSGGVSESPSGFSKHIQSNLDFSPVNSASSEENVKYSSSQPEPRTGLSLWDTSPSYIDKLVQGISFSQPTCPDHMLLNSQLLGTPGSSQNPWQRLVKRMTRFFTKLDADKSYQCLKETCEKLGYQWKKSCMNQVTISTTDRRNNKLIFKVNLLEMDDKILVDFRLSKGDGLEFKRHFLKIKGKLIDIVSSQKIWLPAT
pIC50: −log10 of the molar value.
measured.endpoint: pIC50

# smiles.input, measured.endpoint, meas.value
data = [
    ("N#Cc1ncc2nc1OC/C=C\\COc1cc(N(CCO)CCO)c(Cl)cc1NC(=O)N2", "pIC50", 9.00),
    ("N#Cc1ncc2nc1OCCCCOc1cc(NC(=O)c3ccnc(Cl)c3)c(Cl)cc1NC(=O)N2", "pIC50", 8.40),
    ("N#Cc1ncc2nc1OCCCCOc1cc(OCCCN3CCOCC3)c(Cl)cc1NC(=O)N2", "pIC50", 9.00),
    ("N#Cc1ncc2nc1OC/C=C\\COc1cc(OCCCO)c(Cl)cc1NC(=O)N2", "pIC50", 8.70),
    ("N#Cc1ncc2nc1OC/C=C\\COc1cc(NCc3cncs3)c(Cl)cc1NC(=O)N2", "pIC50", 8.40),
    ("CN(C)c1cc2c(cc1Cl)NC(=O)Nc1cnc(C#N)c(n1)OCCCCO2", "pIC50", 8.70),
    ("CCN(CC)c1cc2c(cc1Cl)NC(=O)Nc1cnc(C#N)c(n1)OCCCCO2", "pIC50", 7.64),
    ("CN(C)c1cc2c(cc1Cl)NC(=O)Nc1cnc(C#N)c(n1)OC/C=C\\CO2", "pIC50", 8.70),
    ("N#Cc1ncc2nc1OC/C=C\\COc1cc(OCCO)c(Cl)cc1NC(=O)N2", "pIC50", 9.00),
    ("N#Cc1ncc2nc1OC/C=C\\COc1cc(OCCCN3CCOCC3)c(Cl)cc1NC(=O)N2", "pIC50", 9.52),
    ("CCNc1cc2c(cc1Cl)NC(=O)Nc1cnc(C#N)c(n1)OCCCCO2", "pIC50", 8.52),
    ("N#Cc1ncc2nc1OCCCCOc1cc(N3CCOC3=O)c(Cl)cc1NC(=O)N2", "pIC50", 8.22),
    ("N#Cc1ncc2nc1OC/C=C\\COc1cc(NC(=O)c3ccnc(Cl)c3)c(Cl)cc1NC(=O)N2", "pIC50", 8.22),
    ("CNc1cc2c(cc1Cl)NC(=O)Nc1cnc(C#N)c(n1)OC/C=C\\CO2", "pIC50", 8.70),
    ("C[C@H](N)C(=O)Nc1cc2c(cc1Cl)NC(=O)Nc1cnc(C#N)c(n1)OC/C=C\\CO2", "pIC50", 8.52),
    ("N#Cc1ncc2nc1OCCCCOc1cc(NC(=O)c3ccncc3)c(Cl)cc1NC(=O)N2", "pIC50", 8.40),
    ("N#Cc1ncc2nc1OC/C=C\\COc1cc(NC(=O)OCCN3CCOCC3)c(Cl)cc1NC(=O)N2", "pIC50", 8.52),
    ("N#Cc1ncc2nc1OCCCCOc1cc(P(=O)(O)O)c(Cl)cc1NC(=O)N2", "pIC50", 8.10),
    ("N#Cc1ncc2nc1OC/C=C\\COc1cc(O)c(Cl)cc1NC(=O)N2", "pIC50", 9.52),
    ("N#Cc1ncc2nc1OCCCCOc1cc(N)c(Cl)cc1NC(=O)N2", "pIC50", 9.00),
]

###

experimental.system: 5'-AMP-activated protein kinase subunit beta-1 (Homo sapiens)
Sequence (Q9Y478 whole entry): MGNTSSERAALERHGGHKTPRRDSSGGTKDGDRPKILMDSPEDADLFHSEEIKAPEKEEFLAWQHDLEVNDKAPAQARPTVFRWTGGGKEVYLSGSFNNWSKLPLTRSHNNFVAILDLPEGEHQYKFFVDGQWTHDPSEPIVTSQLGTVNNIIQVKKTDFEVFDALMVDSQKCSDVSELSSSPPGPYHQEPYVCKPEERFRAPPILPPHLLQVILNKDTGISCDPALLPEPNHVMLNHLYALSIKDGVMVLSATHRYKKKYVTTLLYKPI
assay.notes: Inhibition of AMPK
measured.endpoint: Ki

# smiles.input, meas.value
records = [
    ("N#Cc1ncc2nc1OCCCCOc1cc(NCc3cncs3)c(Cl)cc1NC(=O)N2", "1.54 µM"),
]

###

Tested on: NCI-H1299
assay.notes: Inhibition of doxorubicin-induced cell cycle arrest in H1299 cells at G2/M phase by FACS assay
Type: functional, cell-based
test.conditions: Homo sapiens

# smiles.input, EC50
records = [
    ("CNc1cc2c(cc1Cl)NC(=O)Nc1cnc(C#N)c(n1)OC/C=C\\CO2", "> 10 µM"),
    ("CNc1cc2c(cc1Cl)NC(=O)Nc1cnc(C#N)c(n1)OCCCCO2", "> 10 µM"),
    ("N#Cc1ncc2nc1OCCCCOc1cc(OC(=O)N3CCC(N4CCCCC4)CC3)c(Cl)cc1NC(=O)N2", "> 10 µM"),
]
